Tested on: HepG2
test_description: cell viability relative to DMSO; higher = less toxic
conditions: 72 h; 10000 nM
readout_name: cell viability

Previously resolved entries follow.
molecule	reading
CC(OC(=O)NCC1(CC(=O)O)CCCCC1)OC(=O)C(C)C (centres undefined)	89.4%
CC(C)n1nccc1-c1ncccc1COc1cccc(O)c1C=O	101%
CCCCOc1ccc(CC(=O)NO)cc1	98.2%
CCCCCCCCCCCCOS(=O)(=O)O [dodecyl-sulfate]	92.1%

Exercise: Returns the measured cell viability for the input molecule. Input: Cc1cc(C)c(/C=C2\C(=O)Nc3ccccc32)[nH]1
Key: 67.1%

Exercise: Item under review: CCOc1cc(C(=O)N2CCC(N3CCN(C)CC3)CC2)ccc1Nc1ncc2c(n1)N(C1CCCC1)c1ccccc1C(=O)N2C . Reported cell viability?
Key: 25.2%

Exercise: Given the entry O=C(O)c1nc(=O)[nH]c(=O)[nH]1 , report its measured cell viability.
Key: 101%

Exercise: Which cell viability value is on record for COc1ccc(-c2nc3cc(C4=NNC(=O)CC4C)ccc3[nH]2)cc1 (centres undefined) ?
Key: 59.5%

Exercise: // lookup cell viability for NC(=O)c1ncn([C@@H]2O[C@H](CO)[C@@H](O)[C@H]2O)c1O
Key: 106%

* * *

Test system: U2OS
test_description: cell viability relative to DMSO; higher = less toxic
conditions: 72 h; 10000 nM
Items are presented alongside their recorded cell viability.
Please respond with the number in % and leave the unit unwritten.

Look over these answered cases.
Cn1c(=O)cc(N2CCC[C@@H](N)C2)n(Cc2cc(F)ccc2C#N)c1=O 106
O=C1NC(=O)c2c1c1c3ccccc3n3c1c1c2c2ccccc2n1C1CCC3O1 80
CCOC(=O)[C@@H](N)CCC(=O)N[C@@H](CSCc1ccccc1)C(=O)N[C@@H](C(=O)OCC)c1ccccc1 95.3

Now let's try a different one.
Exercise: Recorded cell viability of CCCC(=O)C1CCN(c2ncnc3c2CN(C(=O)c2ccc(-c4ccccc4)cc2)CC3)CC1 , please.
Key: 95.6

* * *

System: Caco-2
test_description: cell viability relative to DMSO; higher = less toxic
conditions: 72 h; 10000 nM
Property: cell viability; scope: individual molecules
// return numeric value only (unit: %, not printed)

C=CCNc1nc(NCC=C)nc(N2CCN(C(c3ccc(F)cc3)c3ccc(F)cc3)CC2)n1 87.8
Cc1cc(SCc2sc(-c3ccc(C(F)(F)F)cc3)nc2C)ccc1OCC(=O)O 96.2
O=C(NCC1CCOCC1)c1cnc(Nc2ccc(Cl)cc2Cl)nc1C(F)(F)F 101
CN(C)Cc1ccc(S(=O)(=O)n2ccc(/C=C/C(=O)NO)c2)cc1 12.4
N=C(N)SCc1ccc(B(O)O)cc1 92.4
O=C(O)CCNC(=O)c1ccccc1 103
C[C@H]1[C@H](C)CC[C@]2(C(=O)O)CC[C@]3(C)C(=CC[C@@H]4[C@@]5(C)C[C@@H](O)[C@H](O)C(C)(C)[C@@H]5CC[C@]43C)[C@H]12 99.6
CCCN(CCC)S(=O)(=O)c1ccc(C(=O)O)cc1 93.3

Here's the next entry for you.
Exercise: Requested field: cell viability. Item: Cc1ccc(NC(=O)c2cccc(C(C)(C)C#N)c2)cc1Nc1ccc2ncn(C)c(=O)c2c1
Key: 63.8

* * *

Tested on: Vero E6
test_description: drug sensitivity score (DSS) for viability; higher = more toxic; extreme values may be limits of the assay
conditions: 72 h
readout_name: drug sensitivity score
Please respond with just the number, no unit label.

For orientation, consider the following solved cases.
compound	drug sensitivity score
Oc1ccnc2cc(Cl)ccc12 [chloroxoquinoline]	0
C=CCNc1nc(NCC=C)nc(N2CCN(C(c3ccc(F)cc3)c3ccc(F)cc3)CC2)n1 [almitrine]	0.4
CNc1nc(C)nc(N[C@H]2CCC[C@@H](C(=O)NCc3ccc(C#N)cc3C(F)(F)F)C2)n1	0
O=C1[C@H]2CCCC[C@H]2C(=O)N1CCCCN1CCN(c2nsc3ccccc23)CC1 [perospirone]	0
CCOC(=O)C1=C(C)NC(C)=C(C(=O)OCC)C1c1ccccc1/C=C/C(=O)OC(C)(C)C [lacidipine]	0
CN(C)CCCn1cc(C2=C(c3c[nH]c4ccccc34)C(=O)NC2=O)c2ccccc21	2

Exercise: Returns the measured drug sensitivity score for the input compound. Input: O=C1c2ccccc2-c2n[nH]c3cccc1c23 [pyrazolanthrone]
Key: 0

Exercise: Fill in: drug sensitivity score of CCc1cc2cc(OC)c(OC)cc2c(Cc2ccccc2)n1 [moxaverine] is ___
Key: 0

Exercise: Form field: reported drug sensitivity score of CCOc1ccc(Cc2nccc3cc(OCC)c(OCC)cc23)cc1OCC [ethaverine]
Key: 0

Exercise: Recorded drug sensitivity score for N#C/C(=C1/SCC(c2ccccc2Cl)S1)n1ccnc1 (stereo not drawn) [lanoconazole] , please?
Key: 0

Exercise: What value of measured drug sensitivity score is listed for CCOc1cc(C(=O)N2CCC(N3CCN(C)CC3)CC2)ccc1Nc1ncc2c(n1)N(C1CCCC1)c1ccccc1C(=O)N2C [XMD17-109] ?
Key: 9.5

Exercise: So what does the record say about drug sensitivity score for CNC[C@H](O)c1ccc(O)c(O)c1 [epinephrine] ?
Key: 0

* * *

Test system: Caco-2
test_description: cell viability relative to DMSO; higher = less toxic
conditions: 72 h; 1 nM
readout_name: cell viability (%)
Respond with the bare value in %.

Exercise: Value lookup for cell viability; key = CCOc1nc2cccc(C(=O)O)c2n1Cc1ccc(-c2ccccc2-c2nnn[nH]2)cc1
Key: 104

Exercise: Would you mind telling me what cell viability value was observed for CCCCC(=O)O[C@]1(C(=O)CO)CC[C@H]2[C@@H]3CCC4=CC(=O)CC[C@]4(C)[C@H]3[C@@H](O)C[C@@]21C [hydrocortisone-valerate] ?
Key: 103

Exercise: Look at this molecule and give its reported cell viability. C#C[C@]1(OC(C)=O)CC[C@H]2[C@@H]3CCC4=CC(=NO)CC[C@@H]4[C@H]3CC[C@@]21CC (mixture of isomers) [norgestimate]
Key: 98.3

* * *

System: Vero E6
test_description: cell viability relative to DMSO; higher = less toxic
conditions: 72 h; 100 nM
Parameter: cell viability. Scope: all listed entries.
The reply should contain only the number, in %.

Example results:
compound	cell viability (%)
O=C(OCCN1CCOCC1)C1(c2ccccc2)CCCCC1	106
O=C(O)Cc1ccc(CCNS(=O)(=O)c2ccc(Cl)cc2)cc1	109
C[C@H](c1ccc2ccc(OC3CCC(C(F)(F)F)CC3)c(C(F)(F)F)c2c1)N1C2CCC1CC(C(=O)O)C2 (some centres undefined)	96.4
NC(=S)N/N=C/c1ccncc1	93.7
CN(C)Cc1ccc(S(=O)(=O)n2ccc(/C=C/C(=O)NO)c2)cc1	101
COc1ccc(-c2nc3cc(C4=NNC(=O)CC4C)ccc3[nH]2)cc1 (centres undefined)	99.2
Cc1nnc(C(=O)NC(C)(C)c2nc(C(=O)NCc3ccc(F)cc3)c(O)c(=O)n2C)o1	95.7
C[C@H]1NC(=O)NC1=O	96.4
CC(C)(C)CC(=O)Nc1c(F)cc(C(=O)/N=c2\sccn2COP(=O)(O)O)cc1F	102
C[C@@H](N)[C@@H](O)c1ccccc1	101

Exercise: Entry under review: CC(=O)NO [acetohydroxamic-acid] . Reported cell viability?
Key: 102

Exercise: Could you share which cell viability value was measured for NC(=O)OCC(O)COc1ccc(Cl)cc1 (centres undefined) [chlorphensin-carbamate] ?
Key: 105

Exercise: // lookup cell viability for O=C(Nc1ccc([N+](=O)[O-])cc1Cl)c1cc(Cl)ccc1O [niclosamide]
Key: 102

* * *

System: Caco-2
test_description: cell viability relative to DMSO; higher = less toxic
conditions: 72 h; 100 nM
Collected cell viability values appear next to each entry.
Give the number; % is assumed, so skip it.

Worked cases, cell viability given:
compound	study_target	quantity_unit	cell viability
O=C(NCCCNc1nc(Nc2cccc(NC(=O)N3CCCC3)c2)ncc1I)c1cccs1	Caco-2	%	105
CCS(=O)(=O)N(Cc1cccnc1)c1cccc(-c2ccc(C#N)cc2)c1	Caco-2	%	98.1
Cc1cc(Nc2cc(C)c(C#N)c(N[C@@H](C)CCCC(C)(C)O)n2)n[nH]1	Caco-2	%	94
O=C(O)C[C@H](O)C(=O)O	Caco-2	%	99
N=C(N)NC(=N)Nc1cccc(Cl)c1 [m-chlorophenylbiguanide]	Caco-2	%	100

Exercise: Can you share its cell viability? I mean this compound: CSc1nc(-c2ccc(F)cc2)c(-c2ccnc(N[C@@H](C)c3ccccc3)c2)[nH]1
Key: 97.3

Exercise: Need cell viability, item CC(CC(C(N)=O)(c1ccccc1)c1ccccc1)N(C)C (centres undefined) [aminopentamide]
Key: 97.1

Exercise: Data request, read-out cell viability, for COc1ccc(-c2nc3cc(C4=NNC(=O)CC4C)ccc3[nH]2)cc1 (centres undefined)
Key: 98.4

Exercise: Fill in: cell viability of Cc1cc(O)cc(C)c1Cl is ___
Key: 93.2
